Molecular target: Peroxisome proliferator-activated receptor alpha (Homo sapiens)
Sequence (Q07869 whole entry): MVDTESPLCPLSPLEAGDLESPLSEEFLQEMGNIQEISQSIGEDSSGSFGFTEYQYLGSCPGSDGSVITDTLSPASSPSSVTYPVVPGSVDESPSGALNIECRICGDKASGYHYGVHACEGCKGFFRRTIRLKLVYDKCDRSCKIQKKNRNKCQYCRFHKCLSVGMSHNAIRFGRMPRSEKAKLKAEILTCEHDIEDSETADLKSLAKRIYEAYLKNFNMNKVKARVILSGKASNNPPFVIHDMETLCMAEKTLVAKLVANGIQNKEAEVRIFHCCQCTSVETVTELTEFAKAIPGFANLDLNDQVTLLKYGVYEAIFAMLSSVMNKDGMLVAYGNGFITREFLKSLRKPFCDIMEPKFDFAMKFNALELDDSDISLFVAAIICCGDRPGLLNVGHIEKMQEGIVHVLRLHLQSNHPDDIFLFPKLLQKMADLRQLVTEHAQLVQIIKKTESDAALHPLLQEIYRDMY
Assay: Agonist activity at human PPARalpha receptor by cell based transactivation assay
Property Label: pEC50
Notebook: values listed as pEC50 are -log10 of the concentration (mol/L).

{"Structure Smiles String": "CCCc1cc(C(=O)c2ccccc2)ccc1OCCCn1ccc2cc(OC(C)(C)C(=O)O)ccc21", "Value Measured": 7.40}

Please look up its pEC50: CCCc1cc(C(=O)c2ccc(-c3ccccc3)cc2)ccc1OCCCn1ccc2c(OC(C)(C)C(=O)O)cccc21
5.39

Again, but for CCCc1cc(C(=O)c2ccc(OC)cc2)ccc1OCCCn1ccc2cc(OC(C)(C)C(=O)O)ccc21
7.30

Again, but for CCCc1cc(C(=O)c2ccc(-c3ccccc3)cc2)ccc1OCCCN1CCCc2c(OC(C)(C)C(=O)O)cccc21
5.40

Again, but for CCCc1c(OCCCn2ccc3cc(OC(C)(C)C(=O)O)ccc32)ccc2cc(C(=O)c3ccoc3)ccc12
6.89

Again, but for CCCc1c(OCCCn2ccc3cc(OC(C)(C)C(=O)O)ccc32)ccc2cc(C(=O)c3ccc(OC)cc3)ccc12
6.89

====

Target: Peroxisome proliferator-activated receptor gamma (Homo sapiens)
Sequence (P37231 whole entry): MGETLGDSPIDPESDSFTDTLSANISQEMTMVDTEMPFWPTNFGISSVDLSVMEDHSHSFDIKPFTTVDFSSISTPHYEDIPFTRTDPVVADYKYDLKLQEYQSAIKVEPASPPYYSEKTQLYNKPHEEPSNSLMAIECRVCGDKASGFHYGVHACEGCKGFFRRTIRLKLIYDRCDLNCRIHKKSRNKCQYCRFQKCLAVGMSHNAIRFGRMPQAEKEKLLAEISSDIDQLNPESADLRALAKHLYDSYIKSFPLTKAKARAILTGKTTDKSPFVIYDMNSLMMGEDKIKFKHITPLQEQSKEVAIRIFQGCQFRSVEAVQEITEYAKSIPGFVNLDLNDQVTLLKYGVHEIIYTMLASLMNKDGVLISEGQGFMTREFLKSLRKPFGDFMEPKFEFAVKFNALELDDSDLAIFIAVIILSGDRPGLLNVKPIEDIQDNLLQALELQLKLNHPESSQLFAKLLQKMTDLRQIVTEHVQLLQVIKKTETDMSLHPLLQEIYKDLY
Property Label: pEC50
Notebook: values listed as pEC50 are -log10 of the concentration (mol/L).

{"Structure Smiles String": "CCCc1cc(C(=O)c2ccc(-c3ccccc3)cc2)ccc1OCCCN1CCCc2cc(OC(C)(C)C(=O)O)ccc21", "System Under Test": "Peroxisome proliferator-activated receptor gamma (Homo sapiens)", "pEC50": 7.00}
{"Structure Smiles String": "CCCc1cc(C(=O)c2ccccc2)ccc1OCCCn1ccc2cc(OC(C)(C)C(=O)O)ccc21", "System Under Test": "Peroxisome proliferator-activated receptor gamma (Homo sapiens)", "pEC50": 6.38}
{"Structure Smiles String": "CCCc1c(OCCCn2ccc3cc(OC(C)(C)C(=O)O)ccc32)ccc2cc(C(=O)c3ccc(F)cc3)ccc12", "System Under Test": "Peroxisome proliferator-activated receptor gamma (Homo sapiens)", "pEC50": 5.67}
{"Structure Smiles String": "CCCc1cc(C(=O)c2ccc(-c3ccccc3)cc2)ccc1OCCCn1ccc2cc(OC(C)(C)C(=O)O)ccc21", "System Under Test": "Peroxisome proliferator-activated receptor gamma (Homo sapiens)", "pEC50": 6.92}
{"Structure Smiles String": "CCCc1c(OCCCn2ccc3cc(OC(C)(C)C(=O)O)ccc32)ccc2c(C(=O)c3ccccc3)cccc12", "System Under Test": "Peroxisome proliferator-activated receptor gamma (Homo sapiens)", "pEC50": 5.46}

Please look up its pEC50: CCCc1c(OCCCn2ccc3cc(OC(C)(C)C(=O)O)ccc32)ccc2cc(C(=O)c3ccc(OC)cc3)ccc12
6.29

Again, but for CCCc1c(OCCCN2CCCc3c(OC(C)(C)C(=O)O)cccc32)ccc2cc(C(=O)c3ccccc3)ccc12
7.00

====

In this section we review reported EC50 values for a set of compounds.
Biological target: Peroxisome proliferator-activated receptor alpha (Homo sapiens, UniProt Q07869)
Sequence (Q07869 whole entry): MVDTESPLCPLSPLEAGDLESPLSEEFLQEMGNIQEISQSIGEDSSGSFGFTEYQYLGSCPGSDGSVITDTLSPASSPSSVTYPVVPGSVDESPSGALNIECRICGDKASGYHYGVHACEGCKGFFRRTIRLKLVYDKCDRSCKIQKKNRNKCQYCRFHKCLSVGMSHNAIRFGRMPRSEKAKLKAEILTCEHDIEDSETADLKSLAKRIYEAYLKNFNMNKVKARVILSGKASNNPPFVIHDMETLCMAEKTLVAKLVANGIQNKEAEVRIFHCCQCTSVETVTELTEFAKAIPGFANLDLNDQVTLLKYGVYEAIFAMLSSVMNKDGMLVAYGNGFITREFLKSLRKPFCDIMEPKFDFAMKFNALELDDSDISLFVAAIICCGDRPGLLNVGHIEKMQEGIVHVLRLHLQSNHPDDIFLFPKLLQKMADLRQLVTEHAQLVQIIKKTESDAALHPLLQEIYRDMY
Experiment: Agonist activity at human PPARalpha receptor by cell based transactivation assay

Solved cases below.
{"Structure Smiles String": "CCCc1c(OCCCn2ccc3cc(OC(C)(C)C(=O)O)ccc32)ccc2cc(C(=O)c3ccncc3)ccc12", "Value Measured": "> 10 µM"}
{"Structure Smiles String": "CCCc1c(OCCCn2ccc3cc(OC(C)(C)C(=O)O)ccc32)ccc2cc(C(C)=O)ccc12", "Value Measured": "> 10 µM"}
{"Structure Smiles String": "CCCc1cc(C(=O)c2ccc3ccccc3c2)ccc1OCCCn1ccc2cc(OC(C)(C)C(=O)O)ccc21", "Value Measured": "0.03 µM"}

Request body: readout EC50, system Peroxisome proliferator-activated receptor alpha (Homo sapiens, UniProt Q07869), query CCCc1cc(C(=O)c2ccc(-c3ccccc3)cc2)ccc1OCCCN1CCCc2cc(OC(C)(C)C(=O)O)ccc21 . Return the value.
> 10 µM

====

Target: Peroxisome proliferator-activated receptor gamma (Homo sapiens, UniProt P37231)
Sequence (P37231 whole entry): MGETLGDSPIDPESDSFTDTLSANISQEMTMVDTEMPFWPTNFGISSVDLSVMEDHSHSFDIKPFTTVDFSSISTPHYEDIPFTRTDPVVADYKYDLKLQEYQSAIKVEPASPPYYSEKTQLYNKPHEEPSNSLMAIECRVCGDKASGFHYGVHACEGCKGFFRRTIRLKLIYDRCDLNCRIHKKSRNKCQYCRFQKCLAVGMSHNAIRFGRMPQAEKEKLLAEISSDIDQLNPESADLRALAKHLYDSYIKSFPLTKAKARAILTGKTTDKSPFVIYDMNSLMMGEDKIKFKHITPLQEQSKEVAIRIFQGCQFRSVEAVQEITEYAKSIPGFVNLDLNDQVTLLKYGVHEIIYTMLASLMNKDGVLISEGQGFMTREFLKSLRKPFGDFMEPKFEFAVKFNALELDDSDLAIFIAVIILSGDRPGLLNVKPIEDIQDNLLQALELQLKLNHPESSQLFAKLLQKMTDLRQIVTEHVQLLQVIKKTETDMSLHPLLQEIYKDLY
Property Label: pEC50
Notebook: values listed as pEC50 are -log10 of the concentration (mol/L).

{"Structure Smiles String": "CCCc1cc(C(=O)c2ccc3ccccc3c2)ccc1OCCCn1ccc2cc(OC(C)(C)C(=O)O)ccc21", "pEC50": 6.43}
{"Structure Smiles String": "CCCc1cc(C(=O)c2ccc(F)cc2)ccc1OCCCn1ccc2cc(OC(C)(C)C(=O)O)ccc21", "pEC50": 6.05}
{"Structure Smiles String": "CCCc1cc(C(=O)c2ccc(-c3ccccc3)cc2)ccc1OCCCn1ccc2c(OC(C)(C)C(=O)O)cccc21", "pEC50": 6.52}
{"Structure Smiles String": "CCCc1c(OCCCn2ccc3cc(OC(C)(C)C(=O)O)ccc32)ccc2cc(C(=O)c3ccncc3)ccc12", "pEC50": 5.68}
{"Structure Smiles String": "CCCc1c(OCCCn2ccc3cc(OC(C)(C)C(=O)O)ccc32)ccc2cc(C(C)=O)ccc12", "pEC50": 5.97}
{"Structure Smiles String": "CCCc1c(OCCCN2CCCc3cc(OC(C)(C)C(=O)O)ccc32)ccc2cc(C(=O)c3ccccc3)ccc12", "pEC50": 6.27}

Please look up its pEC50: CCCc1c(OCCCn2ccc3cc(OC(C)(C)C(=O)O)ccc32)ccc2cc(C(=O)c3ccoc3)ccc12
6.37

Again, but for CCCc1cc(C(=O)c2ccc3ccccc3c2)ccc1OCCCn1ccc2c(OC(C)(C)C(=O)O)cccc21
5.55

Again, but for CCCc1cc(C(=O)c2ccc(-c3ccccc3)cc2)ccc1OCCCN1CCCc2c(OC(C)(C)C(=O)O)cccc21
7.30

Again, but for CCCc1cc(C(=O)c2ccc(OC)cc2)ccc1OCCCn1ccc2cc(OC(C)(C)C(=O)O)ccc21
6.33
